# Assay: Oral bioavailability in Sprague-Dawley rat at 1 mg/kg
# Format: ADME, organism-based
# Condition Notes: in vivo
Measure Name: bioavailability (%)
Reply numerically in %, unit not repeated.

Record Cc1nc(N2CCN(C)CC2)c2nc(-c3ccccc3Cl)n([C@H](C)CO)c2n1 , field bioavailability: 38

###

# Assay: Drug metabolism in rat liver microsomes at 2 uM after 0.5 hr by LC/MS/MS analysis
# Assay type: ADME
# Condition Notes: read-out: Drug metabolism
Measure Name: metabolised at 0.5 h, 2 µM

Answered cases to consult:
>>> print(df.to_string())
                               input_smiles  result
0  CCN1CCN(c2nc(C)nc3c2nc(-c2ccccc2Cl)n3C(COC)COC)CC1     58%
1  Cc1nc(N2CCN(C)CC2)c2nc(-c3ccccc3Cl)n([C@H](C)CO)c2n1     50%
2  CCN1CCN(c2nc(C)nc3c2nc(-c2ccccc2Cl)n3CCCOC)CC1     71%
3  Cc1nc(N2CCN(C)CC2)c2nc(-c3ccccc3Cl)n([C@@H](C)CO)c2n1     79%
4  COC(=O)NCCn1c(-c2ccccc2Cl)nc2c(N3CCN(C)CC3)nc(C)nc21     25%
5  Cc1nc(N2CCN(C)CC2)c2nc(-c3ccccc3Cl)n(C(C)(C)CO)c2n1     93%

Record Cc1nc(N2CCN(C)CC2)c2nc(-c3ccccc3Cl)n(CC(C)(C)O)c2n1 , field metabolised at 0.5 h, 2 µM: 92%
